# procedure_summary: Gemcitabine plasma pharmacokinetics in Slc28a1+/+ and Slc28a1-/- mice
# condition_context: female, mouse, plasma, intravenous, 50 mg/kg, Cp (dFdU), KO mice, single iv gemcitabine 50mg/kg, 5 min
recorded_endpoint: concentration at 5 min (µg/mL)
Write the value in µg/mL as a bare number.

Input line: Name the recorded concentration at 5 min for "O=c1ccn([C@@H]2O[C@H](CO)[C@@H](O)C2(F)F)c(=O)[nH]1" .
Output line: 0.4

----------
# procedure_summary: Gemcitabine plasma pharmacokinetics in Slc28a1+/+ and Slc28a1-/- mice
# condition_context: female, mouse, plasma, iv, 50 mg/kg, C0, dFdU in plasma, KO mice, iv gemcitabine 50mg/kg, per mouse
recorded_endpoint: C0

Input line: Name the recorded C0 for "O=c1ccn([C@@H]2O[C@H](CO)[C@@H](O)C2(F)F)c(=O)[nH]1" .
Output line: 408 ng/mL

Data origin, for the record: paper PMC10235067
